# TARGET UNDER TEST: VEGF165 (human, UniProt P15692-4 27-191)
# Sequence (P15692 other isoform, or with tags, fused parts or gaps limits assumed): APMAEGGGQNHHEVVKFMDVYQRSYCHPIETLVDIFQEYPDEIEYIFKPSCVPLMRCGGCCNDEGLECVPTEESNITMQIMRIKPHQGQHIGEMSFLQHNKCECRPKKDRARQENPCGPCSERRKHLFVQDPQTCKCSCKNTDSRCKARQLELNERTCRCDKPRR
# PROTOCOL NOTES: cell-based or functional assay
ASSAY ENDPOINT: IC50, HUVEC Survival (µg/mL)
Report as a plain number; the unit µg/mL is understood.

Consider the binder shown here: mvsFlt 1 MDa HCR (multivalent sFlt-hyaluronic acid conjugate, high conjugation ratio) (other, UniProt P17948 27-328, looked up, thiolated with 2-iminothiolane and linked through EMCH maleimide to 1 MDa hyaluronic acid, domain: first 3 Ig-like extracellular domains; Protein-polymer conjugate; 30:1 sFlt:HyA feed ratio; final sFlt:HyA 14.1 by SEC-MALS; not shown: tag implied by Ni-NTA purification, not described) SKLKDPELSLKGTQHIMQAGQTLHLQCRGEAAHKWSLPEMVSKESERLSITKSACGRNGKQFCSTLTLNTAQANHTGFYSCKYLAVPTSKKKETESAIYIFISDTGRPFVEMYSEIPEIIHMTEGRELVIPCRVTSPNITVTLKKFPLDTLIPDGKRIIWDSRKGFIISNATYKEIGLLTCEATVNGHLYKTNYLTHRQTNTIIDVQISTPRPVKLLRGHTLVLNCTATTPLNTRVQMTWSYPDEKNKRASVRRRIDQSNSHANIFYSVLTIDKMQNKDKGLYTCRVRSGPSFKSVNTSVHI What is its recorded IC50, HUVEC Survival?
0.0454
